Assay System: ~100 representative kinases (Homo sapiens)
Construct: Recombinant protein kinase domains with a concentration of 2 μM
Assay: DSF 100 kinase selectivity screen;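 also: compound tested at 20 µM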
Type: binding
Cond: Protein DAPK1; average of three replicates
Measured Endpoint: dTm (K)
Field format: number, assumed K, no unit text.

Compound | Measured Endpoint | Observed Value
O=C(Nc1ccccc1)C1(C(=O)Nc2cccc(-c3c[nH]c4ncnc(N5CCOCC5)c34)c2)CC1 [Compound 12] | dTm | 0.18

Give reported dTm value for O=C(Nc1cccc(-c2c[nH]c3ncnc(N4CCOCC4)c23)c1)C1(C(=O)Nc2ccc(F)c(F)c2)CC1 [Compound 17]
-0.77

Give reported dTm value for COc1cc(S(C)(=O)=O)ccc1Nc1nc(N(C)C)c2c(Cl)c[nH]c2n1 [Compound 37]
0.93

Give reported dTm value for O=C(Nc1cccc(-c2c[nH]c3ncnc(N4CCOCC4)c23)c1)c1cccn(-c2ccc(F)cc2)c1=O [Compound 4]
-0.50

###

Assay System: ~100 representative kinases (Homo sapiens)
Construct: Recombinant protein kinase domains with a concentration of 2 μM
Assay: DSF 100 kinase selectivity screen;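 also: compound tested at 20 µM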
Format: binding
Cond: Protein WNK1; DSF; average of three replicates
Assign a class from recorded dTm; defined classes: range 1: < -0.07 K; range 2: ≥ -0.07 K and < 0.3 K; range 3: ≥ 0.3 K

Reference set (8 entries):
Compound | Assay System | Classification
O=C(Nc1ccc(F)cc1)C1(C(=O)Nc2cccc(-c3c[nH]c4ncnc(N5CCOCC5)c34)c2)CC1 | ~100 representative kinases (Homo sapiens) | range 1
O=C(Nc1cccc(-c2c[nH]c3ncnc(N4CCOCC4)c23)c1)C1(C(=O)Nc2ccc(F)c(Cl)c2)CC1 | ~100 representative kinases (Homo sapiens) | range 3
CC(C)(C)c1cccc(NC(=O)C2(C(=O)Nc3cccc(-c4c[nH]c5ncnc(N6CCOCC6)c45)c3)CC2)c1 | ~100 representative kinases (Homo sapiens) | range 1
Cc1cc(F)ccc1NC(=O)C1(C(=O)Nc2cccc(-c3c[nH]c4ncnc(N5CCOCC5)c34)c2)CC1 | ~100 representative kinases (Homo sapiens) | range 2
O=C(Nc1cccc(-c2c[nH]c3ncnc(N4CCOCC4)c23)c1)C1(C(=O)Nc2ccc(F)cc2F)CC1 | ~100 representative kinases (Homo sapiens) | range 1
Cc1ccc(C(=O)Nc2ccc(CN3CCN(C)CC3)c(C(F)(F)F)c2)cc1C#Cc1cnc2[nH]ncc2c1 [GZD-824, reference compound] | ~100 representative kinases (Homo sapiens) | range 3
COc1cc(NC(=O)C2(C(=O)Nc3cccc(-c4c[nH]c5ncnc(N6CCOCC6)c45)c3)CC2)ccc1F | ~100 representative kinases (Homo sapiens) | range 1
O=C(Nc1ccccc1)C1(C(=O)Nc2cccc(-c3c[nH]c4ncnc(N5CCOCC5)c34)c2)CC1 | ~100 representative kinases (Homo sapiens) | range 2

For the record Cc1ccc(NC(=O)C2(C(=O)Nc3cccc(-c4c[nH]c5ncnc(N6CCOCC6)c45)c3)CC2)cc1 , report the class its dTm corresponds to.
range 2

For the record O=C(Nc1cccc(-c2c[nH]c3ncnc(N4CCOCC4)c23)c1)C1(C(=O)Nc2ccc(F)c(Br)c2)CC1 , report the class its dTm corresponds to.
range 3

For the record CCc1ccc(NC(=O)C2(C(=O)Nc3cccc(-c4c[nH]c5ncnc(N6CCOCC6)c45)c3)CC2)cc1 , report the class its dTm corresponds to.
range 3

For the record Cc1cc(NC(=O)C2(C(=O)Nc3ccc(F)cc3)CC2)cc(-c2c[nH]c3ncnc(N4CCOCC4)c23)c1 , report the class its dTm corresponds to.
range 3

For the record O=C(Nc1cccc(-c2c[nH]c3ncnc(N4CCOCC4)c23)c1)C1(C(=O)Nc2cccc3c2CCC3)CC1 , report the class its dTm corresponds to.
range 3
